# tested.on: TRIP8b(241-602)
# assay.remarks: fluorescence polarisation
pIC50: −log10 of the molar value.
reported.property: pIC50

[[record]]
binder = "DAEKPRFASNL [unlabeled HCN1 peptide]"
reported_measurement = 5.75

